Assay: Cytotoxicity against human HepG2 cells assessed as reduction in cell viability after 2 days by Celltiter-Glo reagent based assay
Conditions: read-out: LD50
measurement.label: CC50 at 48 h

# query: CC50 at 48 h of entry COC(=O)C1=C(C)CS[C@@H]2[C@H](NC(=O)COc3ccc(Cl)cc3)C(=O)N12
> 100 µg/mL

###

Experiment: Permeability of compound by PAMPA
Assay type: ADME
Details: read-out: permeability
Reported Papp values for a set of compounds
Kindly answer with a numeric value in ×10⁻⁶ cm/s, unit omitted.

{"given.smiles": "CCCOC(=O)C1=C(C)CS[C@@H]2[C@H](NC(=O)COc3ccccc3)C(=O)N12", "Papp, ×10⁻⁶ cm/s": 7.28}

Turning now to a further record.
# query: Papp of entry CC1=C(c2nc(C)no2)N2C(=O)[C@@H](NC(=O)COc3ccccc3)[C@H]2SC1
13.4
